- experimental target: bacteriophage T4 DNA polymerase (Enterobacteria phage T4, UniProt P04415)
- Construct: made in house
- protocol: Counter-screen against bacteriophage T4 DNA polymerase
- Format: biochemical
- condition context: DRC-2; 10'; concentration 20
Assignment: determine reported % inhibition T4 10' for the given compounds.

Some solved entries appear below for comparison.
{"compound": "O=C1N=C(Nc2cccc(Cl)c2Cl)S/C1=C\\c1ccco1 [Molecule 3, O=C1N=C(S/C/1=C\\c1ccco1)Nc1cccc(c1Cl)Cl]", "% inhibition T4 10'": "30%"}
{"compound": "CN(C)S(=O)(=O)Oc1ccc(-c2noc(-c3ccc(Oc4cc(Cl)cc(Cl)c4)o3)n2)cc1 [KU0263859]", "% inhibition T4 10'": "35%"}
{"compound": "CC(=O)c1cc2c(N)c(/C(N)=N/C#N)sc2nc1C [KU0015866]", "% inhibition T4 10'": "-17%"}
{"compound": "COc1cccc(Oc2c(C(F)(F)F)oc3cc(OC(=O)N(C)C)ccc3c2=O)c1 [Molecule 52]", "% inhibition T4 10'": "10%"}

For each entry beneath this line, provide reported % inhibition T4 10'.
1. Cc1ccc(NC(=O)C2CCN(C(=O)c3cc4ccsc4[nH]3)CC2)c(Br)c1 [Molecule 14]
2. O=C(Cn1ccc2c(=O)[nH]ccc21)Nc1cc(F)ccc1F [Molecule 42, O=C(Cn1ccc2c1cc[nH]c2=O)Nc1cc(F)ccc1F]
3. Cc1cccc2c(C(=O)NC(C)C)cc(N(C)C)nc12 [Molecule 47, CC(NC(=O)c1cc(nc2c1cccc2C)N(C)C)C]

Reply:
5%
-4%
28%

GET /value?item= COc1ccc(-c2n[nH]cc2Oc2ccc(Cl)cc2)c(O)c1 [KU0029837] &field=% inhibition T4 10' returns -25%

* * *

Assignment: determine reported % inhibition ApPOL 90' for the given compounds.
- experimental target: P. falciparum apicoplast DNA polymerase (Pf-apPOL) (Plasmodium falciparum)
- Sequence (Q8ILY1 entry or part of it): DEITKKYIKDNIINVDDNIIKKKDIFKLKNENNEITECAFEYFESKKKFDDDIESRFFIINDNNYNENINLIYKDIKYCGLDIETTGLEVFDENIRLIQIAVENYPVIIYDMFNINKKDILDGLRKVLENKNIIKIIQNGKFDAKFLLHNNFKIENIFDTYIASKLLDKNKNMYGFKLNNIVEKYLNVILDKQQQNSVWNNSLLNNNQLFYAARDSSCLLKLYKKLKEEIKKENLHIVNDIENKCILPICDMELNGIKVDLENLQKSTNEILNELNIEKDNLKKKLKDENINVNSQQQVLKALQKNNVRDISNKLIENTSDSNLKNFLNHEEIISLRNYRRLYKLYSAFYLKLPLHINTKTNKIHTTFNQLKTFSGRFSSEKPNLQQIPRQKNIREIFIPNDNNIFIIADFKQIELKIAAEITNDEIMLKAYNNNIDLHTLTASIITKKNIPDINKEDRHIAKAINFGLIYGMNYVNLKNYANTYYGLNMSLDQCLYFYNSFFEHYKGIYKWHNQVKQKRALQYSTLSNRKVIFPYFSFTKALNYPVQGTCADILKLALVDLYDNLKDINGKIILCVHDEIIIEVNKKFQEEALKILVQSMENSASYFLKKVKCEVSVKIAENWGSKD
- protocol: Fluorescence-based high-throughput DNA polymerase assay (molecular beacon), primary screen and dose-response;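 further: test concentration in µM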
- Format: biochemical
- condition context: DRC-2, 90', concentration 40

{"compound": "O=C(O)c1c(F)c(F)c(-c2c(F)c(F)c(C(=O)O)c(F)c2F)c(F)c1F", "% inhibition ApPOL 90'": "19%"}
{"compound": "CO/N=C(\\C(=O)N[C@@H]1C(=O)N2C(C(=O)[O-])=C(CSc3nc(=O)c([O-])nn3C)CSC12)c1csc(N)n1.[Na+].[Na+] (stereo partly shown)", "% inhibition ApPOL 90'": "30%"}
{"compound": "COc1ccc2c(c1)CCc1c-2nc2ccc(Br)cc2c1C(=O)O", "% inhibition ApPOL 90'": "52%"}

Here's the next entry for you.
GET /value?item= O=C(Nc1nnc(-c2cccs2)o1)c1ccc([N+](=O)[O-])o1 &field=% inhibition ApPOL 90' returns 57%

* * *

Assignment: determine reported % inhibition T4 40' for the given compounds.
- experimental target: bacteriophage T4 DNA polymerase (Enterobacteria phage T4, UniProt P04415)
- Construct: made in house
- Sequence (P04415 1-898): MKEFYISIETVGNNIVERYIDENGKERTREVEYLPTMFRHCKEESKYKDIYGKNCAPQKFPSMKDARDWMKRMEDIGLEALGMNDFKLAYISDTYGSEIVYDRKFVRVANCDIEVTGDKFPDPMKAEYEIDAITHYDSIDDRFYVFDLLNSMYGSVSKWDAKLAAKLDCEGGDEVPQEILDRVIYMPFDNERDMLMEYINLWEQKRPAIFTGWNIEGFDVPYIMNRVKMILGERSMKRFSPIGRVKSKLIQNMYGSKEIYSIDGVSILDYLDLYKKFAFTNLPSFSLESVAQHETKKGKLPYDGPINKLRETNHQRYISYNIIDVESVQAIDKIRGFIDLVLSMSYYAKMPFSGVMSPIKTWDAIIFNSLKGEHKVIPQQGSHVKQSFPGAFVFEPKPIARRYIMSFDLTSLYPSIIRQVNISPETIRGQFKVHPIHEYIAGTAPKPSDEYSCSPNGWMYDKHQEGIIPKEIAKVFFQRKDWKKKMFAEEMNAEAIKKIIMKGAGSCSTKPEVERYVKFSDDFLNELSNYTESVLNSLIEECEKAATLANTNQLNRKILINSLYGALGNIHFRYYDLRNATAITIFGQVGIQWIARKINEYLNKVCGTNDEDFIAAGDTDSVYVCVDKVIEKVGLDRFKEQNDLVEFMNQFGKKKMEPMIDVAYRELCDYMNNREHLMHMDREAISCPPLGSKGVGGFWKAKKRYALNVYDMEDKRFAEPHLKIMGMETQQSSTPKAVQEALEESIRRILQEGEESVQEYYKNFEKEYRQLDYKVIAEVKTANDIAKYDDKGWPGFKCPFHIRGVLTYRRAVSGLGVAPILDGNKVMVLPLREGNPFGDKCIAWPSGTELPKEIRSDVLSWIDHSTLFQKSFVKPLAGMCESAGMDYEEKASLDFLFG
- protocol: Counter-screen against bacteriophage T4 DNA polymerase
- Type: biochemical
- condition context: DRC-2; 40'; concentration 80
Numbers only, in %.

For each entry beneath this line, provide reported % inhibition T4 40'.
1. Cc1ccc(NC(=O)C2CCN(C(=O)c3cc4ccsc4[nH]3)CC2)c(Br)c1
2. COc1cccc(C(=O)N2CCc3c(nc4cc(-c5ccccc5)[nH]n4c3=O)C2)c1OC
3. O=[N+]([O-])c1ccc(/C=C/c2ccc3ccccc3n2)o1
4. O=C(Cn1ccc2c(=O)[nH]ccc21)Nc1cc(F)ccc1F [Molecule 42, O=C(Cn1ccc2c1cc[nH]c2=O)Nc1cc(F)ccc1F]
5. Cc1ccc(-n2nnc(C(=O)O)c2-c2ccccn2)c(F)c1
6. COc1ccc(-c2n[nH]cc2Oc2ccc(Cl)cc2)c(O)c1

Reply:
10
-27
32
-13
24
-34

GET /value?item= COc1ccc(CNC(=O)Cn2nc3c(c2NC(=O)Cc2cccs2)CSC3)cc1 &field=% inhibition T4 40' returns 38
